Test system: U2OS
assay procedure: Multiplex assay against U2OS
Assay type: toxicity, cell-based
condition: human, 12 h, 1 µM, compound concentration 1 uM, replicate 1
Catalogue of molecules with associated Population Tubulin-Different-Phenotype (%)
Answer as a quantity: numeral, then unit.

Example entries and their recorded answers appear below.
CN1CCN2c3ncccc3Cc3ccccc3C2C1 (stereo not drawn) = 2%
C[C@@H]1C[C@H]2[C@@H]3CCC4=CC(=O)C=C[C@]4(C)[C@@]3(F)[C@@H](O)C[C@]2(C)[C@@]1(O)C(=O)CO = 1%
N[C@@]1(C(=O)O)CO[C@H]2[C@H](C(=O)O)[C@H]21 = 1%

In: # query: Population Tubulin-Different-Phenotype (%) of entry Cc1ccc(F)cc1C(=O)Nc1ccc(C(=O)N2Cc3cccn3Cc3ccccc32)c(Cl)c1
Out: 7%

In: Then this molecule: O=C(NCC(=O)N1CC[C@H](N[C@H]2CC[C@@](O)(c3ccc(-c4ncccn4)cn3)CC2)C1)c1cccc(C(F)(F)F)c1
Out: 4%

In: Same thing, different molecule: O=C(O)Cc1ccccc1Nc1c(Cl)cccc1Cl
Out: 4%

In: Entry to check: CNC[C@H](O)c1ccc(O)c(O)c1 [EPINEPHRINE]
Out: 2%

In: Quick one: O=C1COc2nccc(-c3ccccc3F)c2CN1Cc1cc(C(F)(F)F)cc(C(F)(F)F)c1
Out: 4%

====

Tested on: U2OS
assay procedure: Multiplex assay against U2OS
Format: toxicity, cell-based
condition: human, 24 h, 1 µM, compound concentration 1 uM, replicate 1
readout name: Population Healthy Nuclei (%)
Give your result as the value with the unit written after it.

Solved cases (3 shown):
O=C(NCCO)c1cccc(-c2cc(Nc3ccc(OC(F)(F)F)cc3)ncn2)c1 = 73%
Cc1ccc(/C(=C\CN2CCCC2)c2ccccn2)cc1 = 66%
Cc1ccc(F)cc1C(=O)Nc1ccc(C(=O)N2Cc3cccn3Cc3ccccc32)c(Cl)c1 = 64%

From here, focus on the item given below.
In: Can you share its Population Healthy Nuclei (%)? I mean this compound: N[C@@]1(C(=O)O)CO[C@H]2[C@H](C(=O)O)[C@H]21
Out: 71%

====

Tested on: Fibroblast
assay procedure: Multiplex assay against human fibroblast
Type: toxicity, cell-based
condition: 12 h, 1 µM, compound concentration 1 uM, replicate 2
readout name: Population Apoptotic (%)
# value in %; strip the unit string

Take a look at these entries with their results.
N#Cc1c(N)nc(SCc2csc(-c3ccc(Cl)cc3)n2)c(C#N)c1-c1ccc(OCCO)cc1 = 27
Cc1ccccc1C(=O)Nc1ccc(C(=O)N2CCCC(N(C)C)c3ccccc32)cc1.Cl (centres undefined) = 36
CCCC(CCC)C(=O)O = 57
O=C(NCC(=O)N1CC[C@H](N[C@H]2CC[C@@](O)(c3ccc(-c4ncccn4)cn3)CC2)C1)c1cccc(C(F)(F)F)c1 = 22
O=C(O)Cc1ccccc1Nc1c(Cl)cccc1Cl = 33
COc1cc(NC(=O)CCN2CCC(OC(=O)Nc3ccccc3-c3ccccc3)CC2)c(Cl)cc1CNC[C@H](O)c1ccc(O)c2[nH]c(=O)ccc12 = 37
Oc1c(CN2CCN(c3ccccn3)CC2)cc(Cl)c2cccnc12 = 57
CCCN1CCC[C@@H]2Cc3n[nH]cc3C[C@H]21.Cl [QUINPIROLE HYDROCHLORIDE] = 52

In: Item CNC[C@H](O)c1ccc(O)c(O)c1 [EPINEPHRINE] has what recorded Population Apoptotic (%)?
Out: 40

====

Tested on: U2OS
assay procedure: Multiplex assay against U2OS
Type: toxicity, cell-based
condition: human, 48 h, 10 µM, compound concentration 10 uM, replicate 1
I would appreciate it if you labelled entries Condition met when Population Fragmented Nuclei (%) is 20% or higher, otherwise Condition not met.

CCCn1c(=O)c2[nH]c(C3CCCC3)nc2n(CCC)c1=O = Condition met
Cc1ccc(-c2ccc(F)cc2COc2ccc(CCC(=O)O)cc2)cc1 = Condition met

In: Could you tell me if the measured Population Fragmented Nuclei (%) of C[C@H](NC(=O)c1c(C(F)F)nn(C)c1Oc1cccc(C(F)(F)F)c1)c1ccc(C(=O)O)cc1 reaches 20% or more?
Out: Condition not met

In: Entry Cc1ccc(/C(=C\CN2CCCC2)c2ccccn2)cc1 please
Out: Condition met

In: And the next one, O=C(O)c1cc2ccccc2c(Cc2c(O)c(C(=O)O)cc3ccccc23)c1O ?
Out: Condition not met

In: Now consider O=S(=O)(c1ccccc1)c1cnc2c(N3CCNCC3)cccc2c1 [INTEPIRDINE] and answer again.
Out: Condition met

In: Would you mind doing CCNC1(C(N)=O)CCN(c2ncnc3c2nc(-c2ccccc2Cl)n3-c2ccc(Cl)cc2)CC1 as well?
Out: Condition met

In: Try the compound O=C1COc2nccc(-c3ccccc3F)c2CN1Cc1cc(C(F)(F)F)cc(C(F)(F)F)c1
Out: Condition met

====

Measured Population Membrane Permeable-Phenotype (%), listed per entry.
Tested on: HEK-293T
assay procedure: Multiplex assay against HEK293T
Assay type: toxicity, cell-based
condition: human, 24 h, 1 µM, compound concentration 1 uM, replicate 1
Write the value in % as a bare number.

Completed entries (count: 5):
Cc1nc2ccc(Oc3ccc(F)cc3)cc2c(=O)n1C[C@H]1CCCN(C(C)C)C1.Cl = 0
O=C(O)c1cc2ccccc2c(Cc2c(O)c(C(=O)O)cc3ccccc23)c1O = 1
O=C(NCC(=O)N1CC[C@H](N[C@H]2CC[C@@](O)(c3ccc(-c4ncccn4)cn3)CC2)C1)c1cccc(C(F)(F)F)c1 = 0
COc1ccc2c(c1)C(C(=O)N(Cc1ccc(N(C)C)cc1)c1ccc(C(C)C)cc1)CCC2.Cl (centres undefined) = 0
C[C@H](NC(=O)c1c(C(F)F)nn(C)c1Oc1cccc(C(F)(F)F)c1)c1ccc(C(=O)O)cc1 = 1

In: Look up Population Membrane Permeable-Phenotype (%): O=C1COc2nccc(-c3ccccc3F)c2CN1Cc1cc(C(F)(F)F)cc(C(F)(F)F)c1
Out: 0

In: Now consider COc1c(C)cc(NC(=O)c2nn(Cc3ccc(F)cc3)c3c2CN(C(=O)c2ccc[nH]2)C[C@]3(C)C(N)=O)cc1C .
Out: 0

In: Follow-up entry: O=C(NCCO)c1cccc(-c2cc(Nc3ccc(OC(F)(F)F)cc3)ncn2)c1
Out: 0

In: Also CCCN1CCC[C@@H]2Cc3n[nH]cc3C[C@H]21.Cl [QUINPIROLE HYDROCHLORIDE] , if possible.
Out: 0

In: Same read-out for COc1cc(NC(=O)CCN2CCC(OC(=O)Nc3ccccc3-c3ccccc3)CC2)c(Cl)cc1CNC[C@H](O)c1ccc(O)c2[nH]c(=O)ccc12 ?
Out: 0

====

System: HEK-293T
assay procedure: Multiplex assay against HEK293T
Format: toxicity, cell-based
condition: human, 24 h, 1 µM, compound concentration 1 uM, replicate 2
# key: entry, value: Population Mitotic Cells (%)
Provide the reading as a plain figure in %.

CC[C@H]1OC(=O)[C@H](C)[C@@H](O[C@H]2C[C@@](C)(OC)[C@@H](O)[C@H](C)O2)[C@H](C)[C@@H](O[C@@H]2O[C@H](C)C[C@H](N(C)C)[C@H]2O)[C@@]2(C)CC(C)=C(O2)[C@H](C)[C@@H](O)[C@]1(C)O = 64
C[C@H]1[C@H]2CC[C@H]3[C@@H]4CC=C5C[C@@H](N(C)C)CC[C@]5(C)[C@H]4CC[C@]23CN1C = 75
CCCn1c(=O)c2[nH]c(C3CCCC3)nc2n(CCC)c1=O = 71
C[C@H](NC(=O)c1c(C(F)F)nn(C)c1Oc1cccc(C(F)(F)F)c1)c1ccc(C(=O)O)cc1 = 53
CC1(COc2ccc3c(c2)ncn3-c2ccc3cccc(N4CCC(N)CC4)c3n2)COC1 = 54

Now look at this entry.
In: Please look up its Population Mitotic Cells (%): O=S(=O)(c1ccccc1)c1cnc2c(N3CCNCC3)cccc2c1 [INTEPIRDINE]
Out: 41

====

Recorded Population Pyknosed Nuclei (%) by entry
Tested on: HEK-293T
assay procedure: Multiplex assay against HEK293T
Format: toxicity, cell-based
condition: human, 48 h, 10 µM, compound concentration 10 uM, replicate 2
Express the result in % but write the number alone.

Before answering, review these 4 worked examples.
CC(=O)NCCc1c(Cc2ccccc2)[nH]c2ccccc12 [LUZINDOLE] = 5
CCCn1c(=O)c2[nH]c(C3CCCC3)nc2n(CCC)c1=O = 10
CCCC(CCC)C(=O)O [VALPROIC ACID] = 4
O=C(NCC(=O)N1CC[C@H](N[C@H]2CC[C@@](O)(c3ccc(-c4ncccn4)cn3)CC2)C1)c1cccc(C(F)(F)F)c1 [PF-4136309] = 8

Now turn to the next molecule.
In: Query (molecule): O=S(=O)(c1ccccc1)c1cnc2c(N3CCNCC3)cccc2c1 [INTEPIRDINE] ; field requested: Population Pyknosed Nuclei (%)
Out: 5

All values here come from ChEMBL document CHEMBL5058577.
